- STUDY SYSTEM: T1, recombinant BACE1 (BACE1 extracellular domain, R&D Systems Cat#931-AS) (UniProt P56817 22-457)
- T1 construct: extracellular domain; also called BACE1 extracellular domain protein
- T1 sequence (P56817 22-457): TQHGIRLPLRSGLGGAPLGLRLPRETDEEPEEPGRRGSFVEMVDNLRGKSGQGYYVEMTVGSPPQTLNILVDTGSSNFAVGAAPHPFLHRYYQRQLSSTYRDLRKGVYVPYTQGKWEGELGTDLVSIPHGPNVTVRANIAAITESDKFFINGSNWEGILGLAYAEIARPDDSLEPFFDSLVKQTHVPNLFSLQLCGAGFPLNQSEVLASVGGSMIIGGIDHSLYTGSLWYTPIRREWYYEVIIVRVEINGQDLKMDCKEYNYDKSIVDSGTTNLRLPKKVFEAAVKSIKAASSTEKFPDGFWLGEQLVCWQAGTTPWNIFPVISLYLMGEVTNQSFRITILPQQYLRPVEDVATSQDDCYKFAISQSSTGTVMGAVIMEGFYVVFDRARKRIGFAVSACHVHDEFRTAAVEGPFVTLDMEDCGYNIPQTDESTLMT
- METHOD NOTES: SPR Biacore T200, IgG captured, BACE1 analyte
ATTRIBUTE MEASURED: kon (M⁻¹ s⁻¹)
One number for each entry, in M⁻¹ s⁻¹.

See these solved cases before continuing.
1F1 (antibody, human IgG1, V domains shown, chimeric, human IgG1/kappa; also called Clone 1F1) VH: EVQLQQSGAELMKPGASVKLSCKATGYTFIGYWIDWVKQRPGHGLEWIGEILPGGGSTNHNEKFKGKATFTTDTSSNTVYMQLSSLTTEDSAIYYCAREGSYGNYYFDYWGQGTSVTVSS VL: DIQMTQTPLSLPVSLGDQASISCRSSQSIVHSNGNTYLEWYLQKPGQSPKLLIYKVSNRFSGVPDRFSGSGSGTDFTLKISRVEAEDLGVYYCFQGSHVPYTFGGGTKLEIK ... 49000
2H8 (antibody, human IgG1, V domains shown, chimeric, human IgG1/kappa; also called Clone 2H8; 2H8.01) VH: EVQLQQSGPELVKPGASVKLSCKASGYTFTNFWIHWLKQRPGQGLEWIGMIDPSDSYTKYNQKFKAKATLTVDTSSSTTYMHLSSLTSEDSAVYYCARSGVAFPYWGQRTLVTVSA VL: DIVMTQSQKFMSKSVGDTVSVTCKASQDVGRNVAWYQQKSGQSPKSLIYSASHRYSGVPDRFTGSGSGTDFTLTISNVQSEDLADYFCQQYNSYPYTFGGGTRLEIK ... 30000

Read the next record carefully.
Task: Query: kon; subject: 4A4 (antibody, human IgG1, V domains shown, chimeric, human IgG1/kappa; also called Clone 4A4) VH: EVKLMESGPGLVAPSQSLSITCTVSGFSLTSYPINWVRQPPGKGLEWLGVIWTGGSTNYNSALKSRLSISRDNSKSQVFLKMNSLQTDDTARYYCARWDGYFGAFDYWGQGTTVTVSS VL: DIVMTQTTSSLSASLGDRVTISCRASQDISKYLNWYQQKPDGTVKLLIYYTSRLHSGVPSRFSGSGSGTDYSLTISNLEQEDIATYFCQQSLSLPYTFGGGTRLEIK
Output: 83000
